Recorded measurements of folding stability dG, one per entry
B1: 2K2A (parent)
chain: ELREAFRLYDKEGNGYISTDVMREILAELDETLSSEDLDAMIDEIDADGSGTVDFEEFMGVMT

Variants of: B1
Experiment: folding stability dG (cDNA display proteolysis); higher = more stable
Settings: PBS, room temperature
Quick note: give the figure in kcal/mol, leave out the unit.

A selection of reference data follows.
S18V ... 0.765
R3D ... 1.62
S35Q ... 2.05

Give the reported folding stability dG for this variant. "T32S"
1.99

Give the reported folding stability dG for this variant. "E1M"
2.02

Give the reported folding stability dG for this variant. "N14R"
2.11

Give the reported folding stability dG for this variant. "S35C"
1.64

Give the reported folding stability dG for this variant. "R3P"
0.63

Give the reported folding stability dG for this variant. "G51T"
0.424

Give the reported folding stability dG for this variant. "A40F"
1.77

Give the reported folding stability dG for this variant. "L8S"
1.92

Every entry's value here was drawn from the MegaScale stability set (Tsuboyama et al. 2023).
